The binders listed here are annotated with their IC50.
TARGET_OR_TEST_SYSTEM: transforming growth factor β1 (TGFβ1) (UniProt P01137 279-390)
Sequence (P01137 279-390 limits assumed): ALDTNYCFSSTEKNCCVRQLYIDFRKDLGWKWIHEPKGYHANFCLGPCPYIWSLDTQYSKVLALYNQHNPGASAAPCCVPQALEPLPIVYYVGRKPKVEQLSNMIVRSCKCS
ASSAY_OVERVIEW: BioVeris ECL competition with a labeled competitor; grade ++ = apparent IC50 about 10-50 µM
Protocol: The resulting vectors were used to transform B. subtilis BG6006 host cells. […] Binding of the modified variant BBIs to their respective target proteins was measured using a BioVeris® binding assay, which is a competition assay that determines the binding of the modified variant BBIs to its target protein (e.g. VEGF, FGF5, TGFβ and TNFα) in the presence or absence of a labeled competitor. […]

Consider the worked cases shown below.
{"BINDER": "MM021W-Q-BBIt-TGFβ1 (designed binder, also called BBIt-MM021W-Q-A13I-L29P-F50T-V52A) DPDDESSKPCCDQCICTKSNPPQCRCSDMRPNSCHSACKSCACKHNVDWLCTCADITDFCYEPCKPSE", "REPORTED_RESULT": "10 to 50 µM"}
{"BINDER": "PEN3-Q-BBIt-TGFβ1 (designed binder, also called BBIt-PEN3-Q-A13I-L29P-F50T-V52A) DPDDESSKPCCDQCICTKSNPPQCRCSDMRPNSCHSACKSCACPENINVLPCTCADITDFCYEPCKPSE", "REPORTED_RESULT": "10 to 50 µM"}

Kindly review the next binder as well.
Request: Would you mind telling me what IC50 value was observed for WTQ-Q-BBIt-TGFβ1 (designed binder, also called WTQ-BBIt-Q-TGF; BBIt-WTQ-Q-A13I-L29P-F50T-V52A) DPDDESSKPCCDQCICTKSNPPQCRCSDMRPNSCHSACKSCACWTQHIHNCTCADITDFCYEPCKPSE ?
Result: 10 to 50 µM
